- TARGET OR TEST SYSTEM: PRS enzyme (Homo sapiens, UniProt P07814)
- Construct: the portion corresponding to PRS in cDNA of EPRS was subcloned; made in house
- Sequence (P07814 1007-1512 limits assumed): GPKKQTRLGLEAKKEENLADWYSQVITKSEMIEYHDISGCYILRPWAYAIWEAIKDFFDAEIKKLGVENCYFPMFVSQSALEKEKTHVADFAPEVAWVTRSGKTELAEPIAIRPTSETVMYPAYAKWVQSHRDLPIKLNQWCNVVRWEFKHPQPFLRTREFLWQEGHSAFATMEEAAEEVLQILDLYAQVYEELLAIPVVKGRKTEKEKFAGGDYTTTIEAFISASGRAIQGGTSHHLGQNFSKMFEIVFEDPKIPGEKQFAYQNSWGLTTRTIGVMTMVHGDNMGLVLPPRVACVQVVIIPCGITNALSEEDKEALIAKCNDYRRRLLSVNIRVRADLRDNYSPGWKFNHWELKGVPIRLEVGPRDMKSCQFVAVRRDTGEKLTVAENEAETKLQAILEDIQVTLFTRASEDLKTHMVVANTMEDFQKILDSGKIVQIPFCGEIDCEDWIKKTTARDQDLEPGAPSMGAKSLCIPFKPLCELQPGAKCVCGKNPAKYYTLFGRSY
- ASSAY NOTES: PRS enzyme activity inhibition experiment
- Assay type: biochemical
- PROTOCOL CONDITIONS: purified PRS protein subcloned from EPRS cDNA; [3H]proline, 37° C., 5 to 10 minutes, liquid scintillation counter; read-out: PRS IC50
Give IC50 for every item shown.

## Input Request the reported IC50 associated with "O=C(C[C@H]1NCCC[C@@H]1O)Cn1c(CO)nc2ccc(-c3ccccc3F)cc21"
## Output < 100 nM

## Input Request the reported IC50 associated with OC(C[C@H]1NCCC[C@@H]1O)Cn1cnc2ccc(-c3cccc(Cl)c3)cc21 (some centres unmarked)
## Output 100 to 500 nM

## Input Request the reported IC50 associated with "O=C(C[C@H]1NCCC[C@@H]1O)Cn1cnc2ccc(-c3ccccc3)cc21"
## Output < 100 nM

## Input Request the reported IC50 associated with "O=C(C[C@H]1NCCC[C@@H]1O)Cn1cnc2nc(-c3ccccc3F)ccc21"
## Output > 500 nM

## Input Request the reported IC50 associated with "O=C(C[C@H]1NCCC[C@@H]1O)Cn1cnc2nc(-c3cccc(F)c3)ccc21"
## Output > 500 nM

## Input Request the reported IC50 associated with "Cc1c(-c2cscn2)ccc2c1ncn2CC(=O)C[C@H]1NCCC[C@@H]1O"
## Output < 100 nM

## Input Request the reported IC50 associated with "O=C(C[C@H]1NCCC[C@@H]1O)Cn1cnc2c(-c3cc(F)cc(Cl)c3)nccc21"
## Output > 500 nM

## Input Request the reported IC50 associated with "O=C(C[C@H]1NCCC[C@@H]1O)Cn1cnc2nc(-c3ccc(F)cc3)ccc21"
## Output > 500 nM

## Input Request the reported IC50 associated with "O=C(C[C@H]1NCCC[C@@H]1O)Cn1cnc2cccc(-c3ccccc3C(F)(F)F)c21"
## Output > 500 nM

## Input Request the reported IC50 associated with "O=C(C[C@H]1NCCC[C@@H]1O)Cn1cnc2cccc(-c3cccc(F)c3)c21"
## Output < 100 nM

## Input Request the reported IC50 associated with "Cc1cccc(-c2ccc3ncn(CC(=O)C[C@H]4NCCC[C@@H]4O)c3c2)c1"
## Output < 100 nM

## Input Request the reported IC50 associated with "O=C(C[C@H]1NCCC[C@@H]1O)Cn1cnc2ccc(-c3ccc(Cl)cc3)cc21"
## Output < 100 nM

## Input Request the reported IC50 associated with "O=C(C[C@H]1NCCC[C@@H]1O)Cn1cnc2c(-c3cccc(C(F)(F)F)c3)nccc21"
## Output > 500 nM

## Input Request the reported IC50 associated with OC(C[C@H]1NCCC[C@@H]1O)Cn1cnc2ccc(-c3cccc(Cl)c3)nc21 (some centres unmarked)
## Output < 100 nM

## Input Request the reported IC50 associated with "COc1cc(Cl)cc(-c2ccc3ncn(CC(=O)C[C@H]4NCCC[C@@H]4O)c3c2)c1"
## Output < 100 nM

## Input Request the reported IC50 associated with "O=C(C[C@H]1NCCC[C@@H]1O)Cn1cnc2nc(-c3cccc(C(F)(F)F)c3)ccc21"
## Output > 500 nM

## Input Request the reported IC50 associated with "O=C(C[C@H]1NCCC[C@@H]1O)Cn1cnc2ccc(-c3ccc(F)cc3)nc21"
## Output < 100 nM
